Assay: Pharmacokinetics study in mice (IV and PO)
Format: in vivo
Settings: mouse, plasma; ICR male mice, oral gavage, 5 mg/kg
Experimental: Preparation of 0.5% methyl cellulose: 5 g of methyl cellulose were weighed and dissolved in 1000 mL of purified water. Preparation of oral formulation: a required amount of the test compound was weighed and dissolved in 0.5% methyl cellulose solution to obtain a suspension or solution of 0.5 mg/mL. Preparation of intravenous injection formulation: a required amount of test compound was weighed, and dissolved in 0.5 mL of dimethyl sulfoxide to prepare a solution of 4 mg/mL. […]
Property label: half-life (min)
Dear colleague, please return just the value in min, with no unit written.

The reported value for `C=CC(=O)N1CCN(c2nc(=O)n(-c3c(C)ccnc3C(C)C)c3nc(-c4c(O)cccc4F)c(F)cc23)[C@@H](C)C1` in terms of half-life is 21.6

---

Sequence of the target: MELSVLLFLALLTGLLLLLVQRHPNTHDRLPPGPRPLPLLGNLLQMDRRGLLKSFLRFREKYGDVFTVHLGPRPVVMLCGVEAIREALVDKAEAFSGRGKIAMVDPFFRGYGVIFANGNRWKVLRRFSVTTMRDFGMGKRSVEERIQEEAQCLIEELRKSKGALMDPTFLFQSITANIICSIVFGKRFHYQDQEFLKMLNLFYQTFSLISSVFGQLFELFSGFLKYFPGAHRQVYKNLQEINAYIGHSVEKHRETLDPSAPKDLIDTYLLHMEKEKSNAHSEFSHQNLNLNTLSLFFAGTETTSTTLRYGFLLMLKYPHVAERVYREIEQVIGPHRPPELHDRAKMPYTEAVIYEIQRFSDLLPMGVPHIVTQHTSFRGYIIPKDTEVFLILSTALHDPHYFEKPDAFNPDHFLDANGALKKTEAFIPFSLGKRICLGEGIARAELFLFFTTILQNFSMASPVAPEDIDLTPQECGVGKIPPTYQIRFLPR
Property label: IC50

The reported value for C=C(F)C(=O)N1CCN(c2nc(OC[C@@H]3CCCN3C)nc3c2CCN(c2cccc4cccc(Cl)c24)C3)C[C@@H]1CC#N [MRTX849] in terms of IC50 is 3.93 µM

The reported value for C=CC(=O)N1CCN(c2nc(=O)n(-c3c(C)ccnc3C(C)C)c3nc(-c4c(O)cccc4F)c(F)cc23)[C@@H](C)C1 [AMG510] in terms of IC50 is > 10 µM

---

experiment: Pharmacokinetic properties in rats (IV and PO, LC-MS/MS); type: in vivo; conditions: male, Sprague-Dawley (SD), rat, plasma, intravenous injection, 1 mg/kg, read-out: Vz
Property label: Vd (L/kg)
Dear colleague, please return just the value in L/kg, with no unit written.

The reported value for `C=C(F)C(=O)N1CCN(c2nc(OC[C@@H]3CCCN3C)nc3c2CCN(c2cccc4cccc(Cl)c24)C3)C[C@@H]1CC#N` in terms of Vd is 13.1

The reported value for `C=CC(=O)N1CCN(c2nc(=O)n(-c3c(C)ccnc3C(C)C)c3nc(-c4c(O)cccc4F)c(F)cc23)[C@@H](C)C1` in terms of Vd is 1.57

---

Provide the recorded clearance for the entries that follow.
experiment: Pharmacokinetic properties in rats (IV and PO, LC-MS/MS); type: in vivo; conditions: male, Sprague-Dawley (SD), rat, plasma, intravenous injection, 1 mg/kg
Dear colleague, please return just the value in mL/min/kg, with no unit written.

The reported value for C=CC(=O)N1CCN(c2nc(=O)n(-c3c(C)ccnc3C(C)C)c3nc(-c4c(O)cccc4F)c(F)cc23)[C@@H](C)C1 [AMG510] in terms of clearance is 50.7

The reported value for C=C(F)C(=O)N1CCN(c2nc(OC[C@@H]3CCCN3C)nc3c2CCN(c2cccc4cccc(Cl)c24)C3)C[C@@H]1CC#N [MRTX849] in terms of clearance is 48.1

---

Property label: IC50 (nM)
Dear colleague, please return just the value in nM, with no unit written.

// assay hERG potassium channel (Homo sapiens, UniProt Q12809), entry `C=C(F)C(=O)N1CCN(c2nc(OC[C@@H]3CCCN3C)nc3c2CCN(c2cccc4cccc(Cl)c24)C3)C[C@@H]1CC#N` , IC50 value = 990

---

Provide the recorded fraction unbound at 5 h, 1 μmol/L for the entries that follow.
assay: Plasma protein binding assay (equilibrium dialysis), dog plasma; assay type: in vitro ADME; details: pH 7.4, equilibrium dialysis 5 hours, read-out: Plasma protein binding rate (%) (converted)
Give a plain numeric answer without units written out.

The reported value for `C=C(F)C(=O)N1CCN(c2nc(OC[C@@H]3CCCN3C)nc3c2CCN(c2cccc4cccc(Cl)c24)C3)C[C@@H]1CC#N` in terms of fraction unbound at 5 h, 1 μmol/L is 0.012

The reported value for `C=CC(=O)N1CCN(c2nc(=O)n(-c3c(C)ccnc3C(C)C)c3nc(-c4c(O)cccc4F)c(F)cc23)[C@@H](C)C1` in terms of fraction unbound at 5 h, 1 μmol/L is 0.079

---

Provide the recorded AUC(0-inf) for the entries that follow.
experiment: Pharmacokinetic properties in rats (IV and PO, LC-MS/MS); type: in vivo; details: male, Sprague-Dawley (SD), rat, plasma, intravenous injection, 1 mg/kg
Your answer should be a number followed by the unit of measure.

The reported value for C=CC(=O)N1CCN(c2nc(=O)n(-c3c(C)ccnc3C(C)C)c3nc(-c4c(O)cccc4F)c(F)cc23)[C@@H](C)C1 [AMG510] in terms of AUC(0-inf) is 319 ng·h/mL

The reported value for C=C(F)C(=O)N1CCN(c2nc(OC[C@@H]3CCCN3C)nc3c2CCN(c2cccc4cccc(Cl)c24)C3)C[C@@H]1CC#N [MRTX849] in terms of AUC(0-inf) is 348 ng·h/mL

---

assay: Plasma protein binding assay (equilibrium dialysis), human plasma; assay type: in vitro ADME; conditions: pH 7.4, equilibrium dialysis 5 hours, read-out: Plasma protein binding rate (%) (converted)
Property label: fraction unbound at 5 h, 1 μmol/L
Give a plain numeric answer without units written out.

The reported value for `C=C(F)C(=O)N1CCN(c2nc(OC[C@@H]3CCCN3C)nc3c2CCN(c2cccc4cccc(Cl)c24)C3)C[C@@H]1CC#N` in terms of fraction unbound at 5 h, 1 μmol/L is 0.018

The reported value for `C=CC(=O)N1CCN(c2nc(=O)n(-c3c(C)ccnc3C(C)C)c3nc(-c4c(O)cccc4F)c(F)cc23)[C@@H](C)C1` in terms of fraction unbound at 5 h, 1 μmol/L is 0.075

---

Provide the recorded fraction unbound at 5 h, 1 μmol/L for the entries that follow.
test: Plasma protein binding assay (equilibrium dialysis), rat plasma; assay type: in vitro ADME; settings: pH 7.4, equilibrium dialysis 5 hours, read-out: Plasma protein binding rate (%) (converted)

The reported value for `C=CC(=O)N1CCN(c2nc(=O)n(-c3c(C)ccnc3C(C)C)c3nc(-c4c(O)cccc4F)c(F)cc23)[C@@H](C)C1` in terms of fraction unbound at 5 h, 1 μmol/L is 0.141

The reported value for `C=C(F)C(=O)N1CCN(c2nc(OC[C@@H]3CCCN3C)nc3c2CCN(c2cccc4cccc(Cl)c24)C3)C[C@@H]1CC#N` in terms of fraction unbound at 5 h, 1 μmol/L is 0.01

---

assay: Pharmacokinetics study in mice (IV and PO); assay type: in vivo; details: mouse, plasma; ICR male mice, intravenous injection, 1 mg/kg
Property label: Cmax (ng/mL)
Dear colleague, please return just the value in ng/mL, with no unit written.

The reported value for `C=CC(=O)N1CCN(c2nc(=O)n(-c3c(C)ccnc3C(C)C)c3nc(-c4c(O)cccc4F)c(F)cc23)[C@@H](C)C1` in terms of Cmax is 623

---

experiment: Pharmacokinetic properties in rats (IV and PO, LC-MS/MS); type: in vivo; details: male, Sprague-Dawley (SD), rat, plasma, oral gavage, 5 mg/kg
Property label: Cmax (ng/mL)
Dear colleague, please return just the value in ng/mL, with no unit written.

The reported value for `C=C(F)C(=O)N1CCN(c2nc(OC[C@@H]3CCCN3C)nc3c2CCN(c2cccc4cccc(Cl)c24)C3)C[C@@H]1CC#N` in terms of Cmax is 23.3

The reported value for `C=CC(=O)N1CCN(c2nc(=O)n(-c3c(C)ccnc3C(C)C)c3nc(-c4c(O)cccc4F)c(F)cc23)[C@@H](C)C1` in terms of Cmax is 1260

---

test: Pharmacokinetic properties in rats (IV and PO, LC-MS/MS); assay type: in vivo; details: male, Sprague-Dawley (SD), rat, plasma, intravenous injection, 1 mg/kg
Property label: half-life (h)
Dear colleague, please return just the value in h, with no unit written.

The reported value for `C=C(F)C(=O)N1CCN(c2nc(OC[C@@H]3CCCN3C)nc3c2CCN(c2cccc4cccc(Cl)c24)C3)C[C@@H]1CC#N` in terms of half-life is 3.16

The reported value for `C=CC(=O)N1CCN(c2nc(=O)n(-c3c(C)ccnc3C(C)C)c3nc(-c4c(O)cccc4F)c(F)cc23)[C@@H](C)C1` in terms of half-life is 0.36
